experiment: Pharmacokinetic studies of ENR and SAL in broilers (plasma, non-compartmental); conditions: AA broiler, plasma, po, 7.5 mg/kg, AUC0-∞, broiler plasma; SAL + ENR: ENR 7.5 mg/kg + SAL 6.0 mg/kg co-gavage; n=6, Mean ± SD;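 further: plasma drug levels measured by HPLC or LC-MS/MS, with PK parameters obtained through non-compartmental analysis in WinNonlin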
outcome_measure: AUC(0-inf) (ng·h/mL)

[[record]]
item_smiles = "CCN1CCN(c2cc3c(cc2F)c(=O)c(C(=O)O)cn3C2CC2)CC1"
measured_result = 17500

